The origin of these recorded values is patent US7326700B2.

Molecular target: human vasopressin V2 receptor subtype (Homo sapiens, UniProt P30518)
Sequence (P30518 whole entry): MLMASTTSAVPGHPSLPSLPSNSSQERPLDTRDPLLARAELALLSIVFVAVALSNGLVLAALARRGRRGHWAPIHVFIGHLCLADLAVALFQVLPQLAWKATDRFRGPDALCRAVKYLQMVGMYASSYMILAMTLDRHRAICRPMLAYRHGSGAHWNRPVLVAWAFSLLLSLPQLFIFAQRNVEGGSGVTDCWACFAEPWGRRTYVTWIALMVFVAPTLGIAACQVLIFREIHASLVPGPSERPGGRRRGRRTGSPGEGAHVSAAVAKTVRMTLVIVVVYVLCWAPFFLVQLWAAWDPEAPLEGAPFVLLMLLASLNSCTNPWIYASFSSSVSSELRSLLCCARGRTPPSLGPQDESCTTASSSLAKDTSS
PROPERTY: IC50

State its IC50: COc1cc(C2=CCCCC2)c(Cl)cc1C(=O)N1Cc2ccc(C(=O)N(C)CCCN(C)C)n2Cc2ccccc21 5.84 µM

----------
Consider the following compounds and their measured IC50 readings.
Target: human oxytocin receptor (Homo sapiens)
Sequence (P30559 1-389): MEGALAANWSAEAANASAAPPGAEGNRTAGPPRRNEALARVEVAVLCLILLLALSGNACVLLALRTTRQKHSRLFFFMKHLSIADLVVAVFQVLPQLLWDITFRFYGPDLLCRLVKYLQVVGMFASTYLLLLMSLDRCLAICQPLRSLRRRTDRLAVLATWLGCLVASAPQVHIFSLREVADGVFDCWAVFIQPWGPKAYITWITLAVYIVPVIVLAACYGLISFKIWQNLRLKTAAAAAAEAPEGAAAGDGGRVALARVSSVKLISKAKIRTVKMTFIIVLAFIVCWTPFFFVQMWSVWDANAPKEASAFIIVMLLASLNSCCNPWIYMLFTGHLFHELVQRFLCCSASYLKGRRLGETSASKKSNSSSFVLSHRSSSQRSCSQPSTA

Example entries and their recorded answers appear below.
> print(dat)
                                   compound  property   result
1  COc1cc(C2=CCCCC2)c(Cl)cc1C(=O)N1Cc2ccc(C(=O)N(C)CCCN(C)C)n2Cc2ccccc21 [Example 3]      IC50  9.04 nM
2  Cc1cc(C(=O)N2Cc3ccc(C(=O)N4CCN(C)CC4)n3Cc3ccccc32)ccc1C1=CCCCC1 [Example 4]      IC50  7.47 nM
3  COc1cc(C2=CCCCC2)c(Cl)cc1C(=O)N1Cc2ccc(C(=O)N3CCC[C@H]3CN3CCCC3)n2Cc2ccccc21 [Example 1]      IC50  1.88 nM

Let's switch to this compound now.
Report measured IC50 on human oxytocin receptor (Homo sapiens); entry: Cc1cc(C(=O)N2Cc3ccc(C(=O)N4CCN(C)CC4)n3Cc3ccccc32)ccc1C1=CCCc2ccccc21 [Example 6] 25.3 nM

----------
Target: human vasopressin V1a receptor subtype (Homo sapiens)
Construct: host or cells: CHO cells, stably transfected (pZeoSV vector for the Thibonnier line)
Experiment: Vasopressin binding in CHO cell membranes expressing human vasopressin V1a subtype receptors ([3H]Manning ligand radioligand binding)
Details: 100 nM
Label rule, in plain words: inhibition at 0.1 µM of 30% and up is TRUE, under 30% is FALSE.

Example entries begin here.
> print(dat)
                                   compound  class.name
1  CC1=C(c2ccc(C(=O)N3Cc4ccc(C(=O)N5CCN(C)CC5)n4Cc4ccccc43)cc2C)CCC[C@H]1O       FALSE
2  Cc1cc(C(=O)N2Cc3ccc(C(=O)N4CCN(CCCN(C)C)CC4)n3Cc3ccccc32)ccc1C1=CCCCC1        TRUE
3  Cc1cc(C(=O)N2Cc3ccc(C(=O)N4CCN(C)CC4)n3Cc3ccccc32)ccc1C1=CCCCC1       FALSE
4  COc1cc(C2=CCCCC2)c(Cl)cc1C(=O)N1Cc2ccc(C(=O)N(C)CCCN(C)C)n2Cc2ccccc21       FALSE

Is it the case that CC1=C(c2ccc(C(=O)N3Cc4ccc(C(=O)N5CCN(C)CC5)n4Cc4ccccc43)cc2C)CCCC1O (stereo not shown) has inhibition at 0.1 µM reaching or exceeding 30%? TRUE

Is it the case that Cc1cc(C(=O)N2Cc3ccc(C(=O)N4CCN(C)CC4)n3Cc3ccccc32)ccc1C1=CCCc2ccccc21 has inhibition at 0.1 µM reaching or exceeding 30%? FALSE

Is it the case that Cc1cc(C(=O)N2Cc3ccc(C(=O)N4CCN(CCCN(C)C)CC4)n3Cc3ccccc32)ccc1C1=CCCc2ccccc21 has inhibition at 0.1 µM reaching or exceeding 30%? FALSE

----------
Consider the following compounds and their measured V1a % inhibition @ 100 nM readings.
Biological target: human vasopressin V1a receptor subtype (Homo sapiens, UniProt P37288)
Construct: host or cells: CHO cells, stably transfected (pZeoSV vector for the Thibonnier line)
Sequence (P37288 whole entry): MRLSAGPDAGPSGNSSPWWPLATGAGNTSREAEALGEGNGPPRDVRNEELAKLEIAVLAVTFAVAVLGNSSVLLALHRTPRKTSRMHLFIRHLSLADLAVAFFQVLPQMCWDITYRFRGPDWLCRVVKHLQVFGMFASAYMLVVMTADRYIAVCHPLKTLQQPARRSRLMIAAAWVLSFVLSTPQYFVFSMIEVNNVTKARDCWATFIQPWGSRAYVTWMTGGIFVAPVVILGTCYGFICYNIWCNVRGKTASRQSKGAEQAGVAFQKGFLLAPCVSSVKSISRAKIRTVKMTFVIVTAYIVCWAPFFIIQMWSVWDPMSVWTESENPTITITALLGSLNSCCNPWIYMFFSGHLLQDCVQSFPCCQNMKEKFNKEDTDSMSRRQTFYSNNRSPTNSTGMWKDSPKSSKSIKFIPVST
Test: Vasopressin binding in CHO cell membranes expressing human vasopressin V1a subtype receptors ([3H]Manning ligand radioligand binding)
Conditions: 100 nM
Return type: number; implicit unit %.

> print(dat)
                                   compound  readout.number
1  Cc1cc(C(=O)N2Cc3ccc(C(=O)NCCCN(C)C)n3Cc3ccccc32)ccc1C1=CCCCC1 [Example 14]              24

Report measured V1a % inhibition @ 100 nM on human vasopressin V1a receptor subtype (Homo sapiens, UniProt P37288); entry: Cc1cc(C(=O)N2Cc3ccc(C(=O)N4CCC(N5CCCC5)CC4)n3Cc3ccccc32)ccc1C1=CCCCC1 [Example 19] 33

Report measured V1a % inhibition @ 100 nM on human vasopressin V1a receptor subtype (Homo sapiens, UniProt P37288); entry: Cc1cc(C(=O)N2Cc3ccc(C(=O)N4CCC[C@H]4CN4CCCC4)n3Cc3ccccc32)ccc1C1=CCCCC1 [Example 26] 38

Report measured V1a % inhibition @ 100 nM on human vasopressin V1a receptor subtype (Homo sapiens, UniProt P37288); entry: Cc1cc(C(=O)N2Cc3ccc(C(=O)NCCN4CCCCC4)n3Cc3ccccc32)ccc1C1=CCCCC1 [Example 20] 23

Report measured V1a % inhibition @ 100 nM on human vasopressin V1a receptor subtype (Homo sapiens, UniProt P37288); entry: Cc1cc(C(=O)N2Cc3ccc(C(=O)N4CC[C@@H](N(C)C)C4)n3Cc3ccccc32)ccc1C1=CCCCC1 [Example 27] 62

Report measured V1a % inhibition @ 100 nM on human vasopressin V1a receptor subtype (Homo sapiens, UniProt P37288); entry: Cc1cc(C(=O)N2Cc3ccc(C(=O)N(C)CCCN(C)C)n3Cc3ccccc32)ccc1C1=CCCCC1 [Example 16] 55

Report measured V1a % inhibition @ 100 nM on human vasopressin V1a receptor subtype (Homo sapiens, UniProt P37288); entry: Cc1cc(C(=O)N2Cc3ccc(C(=O)N4CCN(CCN(C)C)CC4)n3Cc3ccccc32)ccc1C1=CCCCC1 [Example 22] 34

Report measured V1a % inhibition @ 100 nM on human vasopressin V1a receptor subtype (Homo sapiens, UniProt P37288); entry: Cc1cc(C(=O)N2Cc3ccc(C(=O)N4CCC(N5CCCCC5)CC4)n3Cc3ccccc32)ccc1C1=CCCCC1 [Example 17] 30

----------
Biological target: human vasopressin V1a receptor subtype (Homo sapiens)
PROPERTY: pIC50
Please keep in mind that pIC50 is minus log10 of the molar concentration; only the number is needed.

Report measured pIC50 on human vasopressin V1a receptor subtype (Homo sapiens); entry: COc1cc(C2=CCCCC2)c(Cl)cc1C(=O)N1Cc2ccc(C(=O)N3CCC[C@H]3CN3CCCC3)n2Cc2ccccc21 5.89

----------
Consider the following molecules and their measured V2 % inhibition @ 100 nM readings.
Molecular target: human vasopressin V2 receptor subtype (Homo sapiens)
Construct: host or cells: CHO cells, stably transfected (pZeoSV vector)
Test: Vasopressin binding in CHO cell membranes expressing human vasopressin V2 subtype receptors ([3H]arginine vasopressin radioligand binding)
Conditions: 100 nM
Return type: number; implicit unit %.

> print(dat)
                                   molecule  readout.number
1  Cc1cc(C(=O)N2Cc3ccc(C(=O)N4CCC(N5CCCC5)CC4)n3Cc3ccccc32)ccc1C1=CCCCC1              18

State its V2 % inhibition @ 100 nM: Cc1cc(C(=O)N2Cc3ccc(C(=O)NCCC4CCCN4C)n3Cc3ccccc32)ccc1C1=CCCCC1 (stereo not drawn) 11

State its V2 % inhibition @ 100 nM: Cc1cc(C(=O)N2Cc3ccc(C(=O)N(C)CCN(C)C)n3Cc3ccccc32)ccc1C1=CCCCC1 5

State its V2 % inhibition @ 100 nM: Cc1cc(C(=O)N2Cc3ccc(C(=O)NCCCn4ccnc4)n3Cc3ccccc32)ccc1C1=CCCCC1 20

State its V2 % inhibition @ 100 nM: Cc1cc(C(=O)N2Cc3ccc(C(=O)NCCN4CCCCC4)n3Cc3ccccc32)ccc1C1=CCCCC1 14

State its V2 % inhibition @ 100 nM: Cc1cc(C(=O)N2Cc3ccc(C(=O)N4CCN(C(C)C)CC4)n3Cc3ccccc32)ccc1C1=CCCCC1 10

State its V2 % inhibition @ 100 nM: Cc1cc(C(=O)N2Cc3ccc(C(=O)N(C)CCCN(C)C)n3Cc3ccccc32)ccc1C1=CCCCC1 10

State its V2 % inhibition @ 100 nM: Cc1cc(C(=O)N2Cc3ccc(C(=O)N4CCC[C@H]4CN4CCCC4)n3Cc3ccccc32)ccc1C1=CCCCC1 9

State its V2 % inhibition @ 100 nM: Cc1cc(C(=O)N2Cc3ccc(C(=O)N4CCN(CCN5CCOCC5)CC4)n3Cc3ccccc32)ccc1C1=CCCCC1 18

State its V2 % inhibition @ 100 nM: Cc1cc(C(=O)N2Cc3ccc(C(=O)N4CCCN(C)CC4)n3Cc3ccccc32)ccc1C1=CCCCC1 3

State its V2 % inhibition @ 100 nM: Cc1cc(C(=O)N2Cc3ccc(C(=O)N4CC[C@@H](N(C)C)C4)n3Cc3ccccc32)ccc1C1=CCCCC1 10

State its V2 % inhibition @ 100 nM: Cc1cc(C(=O)N2Cc3ccc(C(=O)N4CCC(N5CCCCC5)CC4)n3Cc3ccccc32)ccc1C1=CCCCC1 2

State its V2 % inhibition @ 100 nM: C=CCN1CCN(C(=O)c2ccc3n2Cc2ccccc2N(C(=O)c2ccc(C4=CCCCC4)c(C)c2)C3)CC1 12

State its V2 % inhibition @ 100 nM: Cc1cc(C(=O)N2Cc3ccc(C(=O)N4CCN(CCN(C)C)CC4)n3Cc3ccccc32)ccc1C1=CCCCC1 13

State its V2 % inhibition @ 100 nM: Cc1cc(C(=O)N2Cc3ccc(C(=O)NCCCN(C)C)n3Cc3ccccc32)ccc1C1=CCCCC1 5
